Target: D(2) dopamine receptor (Homo sapiens)
Experiment: Dopamine D2 receptor (DRD2) small molecule agonists, cell-based qHTS assay (AID 1963594); note: % is set by controls: 0 for no effect and ±100 for the full control effect; nearly all actives have a fitted effect of over 35% in size
Conditions: HEK293-DRD2 cAMP HTRF, agonist mode, 30 min; series mostly up to 92.4 µM
Results filed as inconclusive are left out. Active and inactive are the calls of the source. Calls come from the whole dose curve.
property-label: activation

Sample records with activation:
>>> reported("Cc1cc(N)c(S(=O)(=O)O)cc1Cl")
"inactive"
>>> reported("Cc1ccnc2ccccc12")
"inactive"
>>> reported("CCCCOCCOC(=O)c1cccnc1")
"inactive"
>>> reported("COc1ccc(/C=C/S(=O)(=O)NC(=O)c2ccc(C)cc2Cl)cc1")
"inactive"
>>> reported("CC(C=O)Cc1ccc(C(C)C)cc1 (centres undefined)")
"inactive"
>>> reported("Cc1c(N)cccc1[N+](=O)[O-]")
"inactive"
>>> reported("CN(C)C(=O)CNC(=O)Cc1ccccc1")
"inactive"
>>> reported("CCOC(=O)CC")
"inactive"

Any idea what activation came out for CCCCCCC1CCCC(=O)O1 (centres undefined) on D(2) dopamine receptor (Homo sapiens)?
inactive

Again, but for SC1CCCCC1
inactive

----------
Target: KiSS-1 receptor (Homo sapiens)
Test: Human kisspeptin (KISS1R) small molecule agonists, calcium flux assay in KISS1R-HEK293 cells (AID 1920064); note: % is set by controls: 0 for no effect and ±100 for the full control effect
Details: KISS1R-HEK293, calcium flux fluorescence, agonist; series mostly up to 76.8 µM
Calls of active or inactive are those of the source. The call rests on the fitted dose curve; in most records, active means well fitted activation curve with a large enough effect in the repeat runs; inconclusive means weak or mixed curves; inactive means flat fitted curve, though single readings scatter.
property-label: activation

Sample records with activation:
>>> reported("OCCCCCCO")
"inactive"
>>> reported("CN1C[C@H](C(=O)N[C@]2(C)O[C@@]3(O)[C@@H]4CCCN4C(=O)[C@H](Cc4ccccc4)N3C2=O)C[C@@H]2c3cccc4[nH]cc(c34)C[C@H]21")
"inactive"
>>> reported("Cc1c(C(=O)NCCO)[n+](=O)c2ccccc2n1[O-]")
"inactive"
>>> reported("COc1cc2c(cc1OC)-c1cc3ccc(OC)c(OC)c3c[n+]1CC2")
"inactive"
>>> reported("O=C(NCC1CN(c2ccc(N3CCOCC3=O)cc2)C(=O)O1)c1ccc(Cl)s1 (configuration not stated)")
"inactive"
>>> reported("C1=C\\CC/C=C\\CC/1")
"inactive"

Any idea what activation came out for COc1ccc(OC)c(OC)c1 on KiSS-1 receptor (Homo sapiens)?
inactive

Again, but for O[C@@H](CNC[C@H](O)[C@H]1CCc2cc(F)ccc2O1)[C@@H]1CCc2cc(F)ccc2O1
inactive

Again, but for CC(C)C[C@@H](N)C(=O)O
-0.242% [at 15.8 µM] (inactive)

Again, but for C/C=C/C(=O)CC
-0.292% [at 15.8 µM] (inactive)

Again, but for COc1cccc(O)c1
inactive

Again, but for BrCCCCCBr
inactive

----------
Target: KiSS-1 receptor (Homo sapiens)
Assay: Human kisspeptin (KISS1R) small molecule agonists, calcium flux assay in KISS1R-HEK293 cells (AID 1920064); note: % is set by controls: 0 for no effect and ±100 for the full control effect
Conditions: KISS1R-HEK293, calcium flux fluorescence, agonist; series mostly up to 76.8 µM
Activity calls are given as the source filed them. The call rests on the fitted dose curve; in most records, active means well fitted activation curve with a large enough effect in the repeat runs; inconclusive means weak or mixed curves; inactive means flat fitted curve, though single readings scatter.
property-label: activation

Sample records with activation:
>>> reported("O=C(NCCN1CCOCC1)c1ccc(Cl)cc1")
"inactive"
>>> reported("O=P(O)(O)C(O)(Cc1cccnc1)P(=O)(O)O")
"inactive"
>>> reported("CCOC(=O)CC#N")
"inactive"
>>> reported("NC(CS)C(=O)O (stereo not drawn)")
"inactive"
>>> reported("CCCCCCCCCCCSCC(=O)O")
"inactive"
>>> reported("C=Cc1ccccc1")
"inactive"
>>> reported("CCCCCCCCCOC(=O)c1ccccc1C(=O)OCCCCCCCCC")
"inactive"
>>> reported("CCC(C(=O)OCCN(CC)CC)c1ccccc1 (stereo not drawn)")
"inactive"
>>> reported("O=C(O)Cc1sc(-c2ccccc2)nc1-c1ccc(Cl)cc1")
"inactive"
>>> reported("C=CC/C=C/C/C=C/C/C=C/C")
"inactive"

Fill in: activation of C[Si]1(C)N[Si](C)(C)N[Si](C)(C)N1 is ___
inactive

Again, but for C=C1CC[C@H](O)C/C1=C\C=C1/CCC[C@]2(C)[C@@H]([C@H](C)CCCC(C)C)CC[C@@H]12
inactive

Again, but for Cc1nc2n(c(=O)c1CCN1CCC(c3noc4cc(F)ccc34)CC1)CCC[C@H]2O
2.67% [at 15.8 µM] (inactive)
